ASSAY: Zeta potential and hydrodynamic diameter of formulated NPs by dynamic light scattering
Assay type: physicochemical
MEASUREMENT CONTEXT: NPs containing PNA/donor DNA, dynamic light scattering, PBS buffer, n = 3
[PNA-N] = peptide nucleic acid monomer (N: the base)
QUANTITY MEASURED: Z Av Diameter (nm)
Numbers only here, please. The scale is nm.

Here is how some substances turned out for Z Av Diameter.
- SUBSTANCE: "H-KKK-JTTTTJJJ-OOO-CCCTTTTCAAGGTGAGTAG-KKK-NH2 [γmCF PNA-h] (NTTTTNNNCCCTTTTCAAGGTGAGTAG; all [PNA-N], the base at N not given here; lysine tripeptides at both ends, OOO linker, some gamma-modified PNA monomers, further chemistry not fully specified) [tail clamp PNA targeting mouse CFTR gene with MPγ monomers in Hoogsteen domain]"
  Z Av Diameter / nm: 349.1
- SUBSTANCE: "H-KKK-TJTJJTTT-OOO-TTTCCTCTATGGGTAAG-KKK-NH2 [hCF PNA] (TNTNNTTTTTTCCTCTATGGGTAAG; listed as DNA, chemistry not fully specified)"
  Z Av Diameter / nm: 291.7
- SUBSTANCE: "H-KKK-TJTJJTTT-OOO-TTTCCTCTATGGGTAAG-KKK-NH2 [γhCF PNA-h] (TNTNNTTTTTTCCTCTATGGGTAAG; listed as DNA, chemistry not fully specified) [tail clamp PNA targeting human CFTR gene with MPγ monomers in Hoogsteen domain]"
  Z Av Diameter / nm: 293.2

Turning now to a further record.
query: Look up Z Av Diameter: H-KKK-JTTTTJJJ-OOO-CCCTTTTCAAGGTGAGTAG-KKK-NH2 [mCF PNA] (NTTTTNNNCCCTTTTCAAGGTGAGTAG; listed as DNA, chemistry not fully specified)
result: 317.8
